target: ZER1 (UniProt Q7Z7L7); assay: log2 fold change, soluble protein after heating vs DMSO (PISA); higher = thermal stabilisation; K562 cells, 10 uM, 30 min; active = over 0.2 and 3.5 SD of the protein, either way, in both replicates (recomputed)
Sequence (Q7Z7L7 whole entry, looked up): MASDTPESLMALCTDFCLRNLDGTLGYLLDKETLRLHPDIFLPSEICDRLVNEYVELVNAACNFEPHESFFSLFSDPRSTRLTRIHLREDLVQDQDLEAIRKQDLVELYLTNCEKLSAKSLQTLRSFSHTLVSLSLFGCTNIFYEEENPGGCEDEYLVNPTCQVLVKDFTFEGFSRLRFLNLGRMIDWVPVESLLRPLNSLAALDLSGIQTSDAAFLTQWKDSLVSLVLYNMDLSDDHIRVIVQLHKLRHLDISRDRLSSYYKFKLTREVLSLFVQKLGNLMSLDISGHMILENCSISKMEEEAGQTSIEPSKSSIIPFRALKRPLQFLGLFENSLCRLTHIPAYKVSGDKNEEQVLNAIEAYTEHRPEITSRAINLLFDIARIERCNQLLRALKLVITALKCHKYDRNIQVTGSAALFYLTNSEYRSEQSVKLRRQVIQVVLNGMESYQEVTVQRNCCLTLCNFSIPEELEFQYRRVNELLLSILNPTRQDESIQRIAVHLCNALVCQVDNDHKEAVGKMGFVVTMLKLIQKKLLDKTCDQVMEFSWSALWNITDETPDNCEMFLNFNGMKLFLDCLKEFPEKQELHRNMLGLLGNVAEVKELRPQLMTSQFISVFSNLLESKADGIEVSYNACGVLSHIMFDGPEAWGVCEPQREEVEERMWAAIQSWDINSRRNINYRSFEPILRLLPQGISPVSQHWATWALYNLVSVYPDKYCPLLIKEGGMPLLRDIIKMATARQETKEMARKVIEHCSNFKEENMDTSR
Targets with a hit are over-represented here; the source holds about 7,900 in all. About 0.6% of all pairs of compound and target were hits.
readoutType: log2 fold change

1) FC(F)(F)c1ccc(/C=C/c2nc(COc3ccc(CCCCn4ccnn4)cc3)co2)cc1; 0.044 (inactive)
2) CN(CCOc1ccc(C[C@@H]2SC(=O)NC2=O)cc1)c1ccccn1 (racemic); 0.103 (inactive)
3) CC1=C(C(=O)Nc2cc3cn[nH]c3cc2F)C(c2ccc(C(F)(F)F)cc2)CC(=O)N1 (configuration not stated); -0.112 (inactive)
4) CN1CCN(CCOc2cc(OC3CCOCC3)c3c(Nc4c(Cl)ccc5c4OCO5)ncnc3c2)CC1; 0.013 (inactive)
5) CC(=O)c1cnc2ccc(-c3cc(Cl)c(O)c(Cl)c3)nc2c1N[C@H]1CC[C@H](CN(C)C)CC1; 0.009 (inactive)

Q. Please give the measured log2 fold change for this molecule: Cn1c2cc(S(C)=O)sc2c2cnn(Cc3cccc(N)c3)c(=O)c21 (configuration not stated)
A. 0.019 (inactive)

Q. Please give the measured log2 fold change for this molecule: CC[C@H](C)[C@H](NC(=O)[C@H]([C@@H](C)CC)N(C)C(C)=O)C(=O)N[C@H](C(=O)N[C@@H](CC(C)C)C(=O)[C@@]1(C)CO1)[C@@H](C)O
A. 0.048 (inactive)

###

biological target: YOD1 (UniProt Q5VVQ6); test: log2 fold change, soluble protein after heating vs DMSO (PISA); higher = thermal stabilisation; K562 cells, 10 uM, 30 min; active = over 0.2 and 3.5 SD of the protein, either way, in both replicates (recomputed)
Sequence (Q5VVQ6 whole entry, looked up): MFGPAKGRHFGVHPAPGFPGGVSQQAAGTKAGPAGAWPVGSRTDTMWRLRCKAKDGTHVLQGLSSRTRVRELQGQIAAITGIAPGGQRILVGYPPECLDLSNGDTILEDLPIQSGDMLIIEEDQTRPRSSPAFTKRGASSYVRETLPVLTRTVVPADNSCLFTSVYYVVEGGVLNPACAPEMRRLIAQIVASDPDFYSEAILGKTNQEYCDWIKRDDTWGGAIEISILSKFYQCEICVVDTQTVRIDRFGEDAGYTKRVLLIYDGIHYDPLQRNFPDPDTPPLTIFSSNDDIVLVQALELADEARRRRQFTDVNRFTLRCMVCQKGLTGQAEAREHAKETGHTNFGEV
Of roughly 7,900 targets only a part is listed; those with a hit were picked by preference. About 0.6% of all pairs of compound and target were hits.
readoutType: log2 fold change
API note: the answer field is a bare number with no unit suffix.

The cases that follow already have their log2 fold change on record.
1) O=C(Nc1cccc(Nc2ncc(Br)c(NCCc3cnc[nH]3)n2)c1)N1CCCC1; -0.012
2) Cc1cn(-c2cc(NC(=O)c3ccc(C)c(Nc4nccc(-c5cccnc5)n4)c3)cc(C(F)(F)F)c2)cn1; -0.061
3) COc1cc2nc(-c3cc(F)ccc3O)nc(N[C@@H]3CNC[C@H]3C(C)(C)O)c2cc1OC; 0.018

// moving on: another record for log2 fold change
Q. Please give the measured log2 fold change for this molecule: FC(F)(F)c1ccc(/C=C/c2nc(COc3ccc(CCCCn4ccnn4)cc3)co2)cc1
A. 0.108

###

target: YIPF5 isoform 3 (UniProt Q969M3); experiment: log2 fold change, soluble protein after heating vs DMSO (PISA); higher = thermal stabilisation; K562 cells, 10 uM, 30 min; active = over 0.2 and 3.5 SD of the protein, either way, in both replicates (recomputed)
Sequence (Q969M3 whole entry, looked up, canonical isoform): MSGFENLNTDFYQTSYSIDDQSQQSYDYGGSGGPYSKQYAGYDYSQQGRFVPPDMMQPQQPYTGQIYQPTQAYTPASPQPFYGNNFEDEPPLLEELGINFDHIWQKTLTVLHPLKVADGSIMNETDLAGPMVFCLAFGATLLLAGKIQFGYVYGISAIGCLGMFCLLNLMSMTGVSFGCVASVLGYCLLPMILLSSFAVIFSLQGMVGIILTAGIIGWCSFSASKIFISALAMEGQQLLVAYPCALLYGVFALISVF
About 7,900 targets were measured; listed, in parts, are those with a hit and a random draw of the rest. About 0.6% of all pairs of compound and target were hits.
Give true when the value for log2 fold change is at least 0.03. Give false when it is less.

Previously resolved entries follow.
1. CN1CCN(c2nc(C3=C(c4c[nH]c5ccccc45)C(=O)NC3=O)c3ccccc3n2)CC1; true
2. COc1cc(Nc2ncc3c(n2)-c2ccc(Cl)cc2C(c2c(F)cccc2OC)=NC3)ccc1C(=O)O; false
3. Nc1ccccc1NC(=O)c1ccc(CNC(=O)OCc2cccnc2)cc1; false
4. NC(=O)c1cnc(N[C@@H]2CCCC[C@@H]2N)nc1Nc1cccc(-n2nccn2)c1; false
5. Cn1cc(-c2ccc3nnc(C(F)(F)c4ccc5ncccc5c4)n3n2)cn1; true
6. Cc1cccc(CC(=O)N2CCc3c2ccc(-c2cn(C)c4ncnc(N)c24)c3F)n1; true
7. NCC(=O)Nc1ccc(-n2nc(C(F)(F)F)cc2-c2ccc3c(ccc4ccccc43)c2)cc1; false
8. O=C(Nc1nc2ccccc2n1CCN1CCOCC1)c1cccc([N+](=O)[O-])c1; false
9. COc1cc2nc(-c3cc(F)ccc3O)nc(N[C@@H]3CNC[C@H]3C(C)(C)O)c2cc1OC; true
10. O=C1NC(=O)C(c2cnc3ccccn23)=C1c1cn2c3c(cc(F)cc13)CN(C(=O)N1CCCCC1)CC2; true

Q. Please check the record COc1ccc(Cn2ccc3ccc(C(=O)NO)cc32)cc1 and state if its log2 fold change is at or above 0.03.
A. false

Q. Please check the record CCn1cc(-c2ccnc3[nH]c(-c4cccc(CN(C)C)c4)cc23)c(-c2ccc(NC(=O)N(C)C)cc2)n1 and state if its log2 fold change is at or above 0.03.
A. true

Q. Please check the record COc1cccc2cc(-c3nc([C@H]4CC[C@H](C(=O)O)CC4)n4ncnc(N)c34)[nH]c12 and state if its log2 fold change is at or above 0.03.
A. false

###

biological target: YAE1 (UniProt Q9NRH1); assay: log2 fold change, soluble protein after heating vs DMSO (PISA); higher = thermal stabilisation; K562 cells, 10 uM, 30 min; active = over 0.2 and 3.5 SD of the protein, either way, in both replicates (recomputed)
Sequence (Q9NRH1 whole entry, looked up): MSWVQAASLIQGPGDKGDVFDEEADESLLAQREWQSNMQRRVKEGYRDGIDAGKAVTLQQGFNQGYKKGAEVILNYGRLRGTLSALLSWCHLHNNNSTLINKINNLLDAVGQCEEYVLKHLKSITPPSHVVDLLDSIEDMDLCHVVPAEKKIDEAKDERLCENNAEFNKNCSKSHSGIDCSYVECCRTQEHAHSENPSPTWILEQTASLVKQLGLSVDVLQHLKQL
Of roughly 7,900 targets only a part is listed; those with a hit were picked by preference. About 0.6% of all pairs of compound and target were hits.
readoutType: log2 fold change
API note: the answer field is a bare number with no unit suffix.

1. c1cn2cc(-c3ccc4cn[nH]c4c3)nc(Nc3ccc(N4CCOCC4)cc3)c2n1 [entospletinib]; -0.07
2. CC(=O)c1cnc2ccc(-c3cc(Cl)c(O)c(Cl)c3)nc2c1N[C@H]1CC[C@H](CN(C)C)CC1; 0.078
3. CS(=O)(=O)N1CCN(Cc2cc3nc(-c4cccc5[nH]ncc45)nc(N4CCOCC4)c3s2)CC1 [pictilisib]; 0.021
4. C[C@@H]1COCCN1c1cc(C2(S(C)(=O)=O)CC2)nc(-c2cccc3[nH]ccc23)n1; -0.039
5. Cc1cn(-c2cc(NC(=O)c3ccc(C)c(Nc4nccc(-c5cccnc5)n4)c3)cc(C(F)(F)F)c2)cn1 [nilotinib]; -0.023

Q. Please give the measured log2 fold change for this compound: Cc1ccc(C(=O)N(CCCN)[C@@H](c2nc3cc(Cl)ccc3c(=O)n2Cc2ccccc2)C(C)C)cc1 [ispinesib]
A. 0.063

Q. Please give the measured log2 fold change for this compound: CC(C)N(C[C@H]1O[C@@H](n2cnc3c(N)ncnc32)[C@H](O)[C@@H]1O)[C@H]1C[C@@H](CCc2nc3cc(C(C)(C)C)ccc3[nH]2)C1 [pinometostat]
A. 0.011

###

target: YWHAZ (UniProt P63104); assay: log2 fold change, soluble protein after heating vs DMSO (PISA); higher = thermal stabilisation; K562 cells, 10 uM, 30 min; active = over 0.2 and 3.5 SD of the protein, either way, in both replicates (recomputed)
Sequence (P63104 whole entry, looked up): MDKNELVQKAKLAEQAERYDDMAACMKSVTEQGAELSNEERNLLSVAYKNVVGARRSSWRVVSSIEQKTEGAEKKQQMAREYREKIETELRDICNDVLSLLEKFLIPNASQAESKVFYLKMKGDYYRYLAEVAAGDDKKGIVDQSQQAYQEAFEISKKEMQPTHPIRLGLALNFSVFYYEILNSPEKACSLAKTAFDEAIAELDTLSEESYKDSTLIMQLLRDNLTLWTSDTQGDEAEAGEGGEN
The full data set covers some 7,900 targets. This sample favours those with a hit. About 0.6% of all pairs of compound and target were hits.
// values below are reported log2 fold change
API note: the answer field is a bare number with no unit suffix.

1. CCN(CCCOc1ccc2c(Nc3cc(CC(=O)Nc4cccc(F)c4)[nH]n3)ncnc2c1)CCOP(=O)(O)O [barasertib]; -0.002
2. CCCc1cc(C)[nH]c(=O)c1CNC(=O)c1cc(-c2ccnc(N3CCN(C)CC3)c2)cc2c1cnn2C(C)C; 0.056
3. CON(C)C(=O)N1N=C(c2cc(F)ccc2F)S[C@@]1(CCCN)c1ccccc1 [filanesib]; -0.027

Q. Please give the measured log2 fold change for this compound: CNCc1ccc(-c2[nH]c3cc(F)cc4c3c2CCNC4=O)cc1 [rucaparib]
A. -0.041

Q. Please give the measured log2 fold change for this compound: Cc1cccc(-c2[nH]c(C(C)(C)C)nc2-c2ccc3nccnc3c2)n1
A. 0.009

Q. Please give the measured log2 fold change for this compound: CC(C)C[C@@H](C=O)NC(=O)[C@H](CC(C)C)NC(=O)[C@H](CC(C)C)NC(=O)OCc1ccccc1
A. -0.098

Q. Please give the measured log2 fold change for this compound: CCCS(=O)(=O)Nc1ccc(F)c(C(=O)c2c[nH]c3ncc(Cl)cc23)c1F
A. 0.228

###

target: YWHAZ (UniProt E7ESK7); experiment: log2 fold change, soluble protein after heating vs DMSO (PISA); higher = thermal stabilisation; K562 cells, 10 uM, 30 min; active = over 0.2 and 3.5 SD of the protein, either way, in both replicates (recomputed)
About 7,900 targets were measured; listed, in parts, are those with a hit and a random draw of the rest. About 0.6% of all pairs of compound and target were hits.
Give 1 (yes) when the value for log2 fold change is at least -0.04. Give 0 (no) when it is less.

Q. Please check the record CC(C)C[C@@H](C=O)NC(=O)[C@H](CC(C)C)NC(=O)[C@H](CC(C)C)NC(=O)OCc1ccccc1 and state if its log2 fold change is at or above -0.04.
A. 1 (yes)

Q. Please check the record c1cn2cc(-c3ccc4cn[nH]c4c3)nc(Nc3ccc(N4CCOCC4)cc3)c2n1 [entospletinib] and state if its log2 fold change is at or above -0.04.
A. 1 (yes)

Q. Please check the record C[C@H](Nc1ncnc2nc[nH]c12)c1cc2cccc(Cl)c2c(=O)n1-c1ccccc1 [duvelisib] and state if its log2 fold change is at or above -0.04.
A. 1 (yes)

Q. Please check the record Cc1ccc(NC(=O)c2ccc(CN3CC[C@H](N(C)C)C3)c(C(F)(F)F)c2)cc1Nc1nccc(-c2cncnc2)n1 [bafetinib] and state if its log2 fold change is at or above -0.04.
A. 0 (no)

Q. Please check the record Fc1ccc(Cl)cc1-c1nc(Nc2ccncc2)c2nccnc2n1 and state if its log2 fold change is at or above -0.04.
A. 1 (yes)

Q. Please check the record O=C(CCCCCCNC(=O)c1cnc(N(c2ccccc2)c2ccccc2Cl)nc1)NO [citarinostat] and state if its log2 fold change is at or above -0.04.
A. 0 (no)

Where these numbers come from: the supplement of paper PMC10849652
